Listed here are compounds together with their documented tissue uptake at 24 h.
PROTOCOL_DESCRIPTION: in vivo
Design: species or system mice
CONDITION_SET: male, NODSCID 1L2RγKO, mouse, iv, total radioactivity, Salivary uptake
MEASURE: tissue uptake at 24 h (%ID/g)

compound="COc1ccc(CCCC(=O)NCC(=O)N[C@@H](CCCCNC(=O)CN2CCN(CC(=O)O)CCN(CC(=O)O)CCN(CC(=O)O)CC2)C(=O)NC[C@H]2CC[C@H](C(=O)N[C@@H](Cc3c4ccccc4cc4ccccc34)C(=O)NCCCC[C@H](NC(=O)N[C@@H](CCCC(=O)O)C(=O)O)C(=O)O)CC2)cc1 [177Lu-HTK03170, metal not drawn]" measure="tissue uptake at 24 h" experimental_value=0.28
compound="COc1ccc(CCCC(=O)NCC(=O)N[C@@H](CCCCNC(=O)CN2CCN(CC(=O)O)CCN(CC(=O)O)CCN(CC(=O)O)CC2)C(=O)NC[C@H]2CC[C@H](C(=O)N[C@@H](Cc3c4ccccc4cc4ccccc34)C(=O)NCCCC[C@H](NC(=O)N[C@@H](COCC(=O)O)C(=O)O)C(=O)O)CC2)cc1 [177Lu-HTK04028, metal not drawn]" measure="tissue uptake at 24 h" experimental_value=0.45
compound="O=C(O)CCC[C@H](NC(=O)N[C@@H](CCCCNC(=O)[C@H](Cc1c2ccccc2cc2ccccc12)NC(=O)[C@H]1CC[C@H](CNC(=O)CN2CCN(CC(=O)O)CCN(CC(=O)O)CCN(CC(=O)O)CC2)CC1)C(=O)O)C(=O)O [177Lu-HTK03149, metal not drawn]" measure="tissue uptake at 24 h" experimental_value=0.05

* * *

PROTOCOL_DESCRIPTION: in vivo
Design: species or system mice
CONDITION_SET: male, NODSCID 1L2RγKO, mouse, iv, total radioactivity, Bone uptake
MEASURE: tissue uptake at 4 h

molecule="COc1ccc(CCCC(=O)NCC(=O)N[C@@H](CCCCNC(=O)CN2CCN(CC(=O)O)CCN(CC(=O)O)CCN(CC(=O)O)CC2)C(=O)NC[C@H]2CC[C@H](C(=O)N[C@@H](Cc3c4ccccc4cc4ccccc34)C(=O)NCCCC[C@H](NC(=O)N[C@@H](CSCC(=O)O)C(=O)O)C(=O)O)CC2)cc1 [177Lu-HTK04048, metal not drawn]" experimental_value="0.74 %ID/g"
molecule="O=C(O)CCC[C@H](NC(=O)N[C@@H](CCCCNC(=O)[C@H](Cc1c2ccccc2cc2ccccc12)NC(=O)[C@H]1CC[C@H](CNC(=O)[C@H](CCCCNC(=O)CN2CCN(CC(=O)O)CCN(CC(=O)O)CCN(CC(=O)O)CC2)NC(=O)CNC(=O)CCCc2ccc(Cl)cc2)CC1)C(=O)O)C(=O)O [177Lu-HTK03153, metal not drawn]" experimental_value="0.83 %ID/g"
molecule="COc1ccc(CCCC(=O)NCC(=O)N[C@@H](CCCCNC(=O)CN2CCN(CC(=O)O)CCN(CC(=O)O)CCN(CC(=O)O)CC2)C(=O)NC[C@H]2CC[C@H](C(=O)N[C@@H](Cc3c4ccccc4cc4ccccc34)C(=O)NCCCC[C@H](NC(=O)N[C@@H](CCCC(=O)O)C(=O)O)C(=O)O)CC2)cc1 [177Lu-HTK03170, metal not drawn]" experimental_value="0.45 %ID/g"
molecule="COc1ccc(CCCC(=O)NCC(=O)N[C@@H](CCCCNC(=O)CN2CCN(CC(=O)O)CCN(CC(=O)O)CCN(CC(=O)O)CC2)C(=O)NC[C@H]2CC[C@H](C(=O)N[C@@H](Cc3c4ccccc4cc4ccccc34)C(=O)NCCCC[C@H](NC(=O)N[C@@H](COCC(=O)O)C(=O)O)C(=O)O)CC2)cc1 [177Lu-HTK04028, metal not drawn]" experimental_value="0.63 %ID/g"
molecule="O=C(O)CCC[C@H](NC(=O)N[C@@H](CCCCNC(=O)[C@H](Cc1c2ccccc2cc2ccccc12)NC(=O)[C@H]1CC[C@H](CNC(=O)CN2CCN(CC(=O)O)CCN(CC(=O)O)CCN(CC(=O)O)CC2)CC1)C(=O)O)C(=O)O [177Lu-HTK03149, metal not drawn]" experimental_value="0.02 %ID/g"
